Entries and their Relative IC50 to Polypeptide_29
- targetUnderTest: human IL-6 (mature hIL-6) (human, UniProt P05231 30-212)
- Sequence (P05231 30-212): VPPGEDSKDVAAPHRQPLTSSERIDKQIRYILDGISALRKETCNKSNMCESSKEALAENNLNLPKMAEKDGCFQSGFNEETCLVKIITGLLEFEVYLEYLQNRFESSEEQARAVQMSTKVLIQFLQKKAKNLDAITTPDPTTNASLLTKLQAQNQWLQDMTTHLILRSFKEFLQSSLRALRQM
- assayMethodText: cell-based or functional assay
Unit fold implied. Number only.

As a guide, the following entries are already answered.
INSERT INTO measurements (binder, observable, uom, reportedvalue) VALUES
  ('Compound 18 (VHH, Chem. 26 (C18 fatty acid substituent) on Cys in position 4 and on Cys in position 6 of the extension (SEQ ID NO: 162)) VHH: EVQLVESGGGLVQPGGSLKLSCTTSGRRFSEYAVGWFRQAPGKEREFVADIGEQAENTWYAESVLGRFTISRDDAKNTVYLEMDGLKPEDTAVYYCAADKYGVGGNAQGYYDSWGQGTQVTVSS', 'Relative IC50 to Polypeptide_29', 'fold', 1.2),
  ('Compound 17 (VHH, Chem. 24 (C16 fatty acid substituent) on Cys in position 4 and on Cys in position 6 of the extension (SEQ ID NO: 162)) VHH: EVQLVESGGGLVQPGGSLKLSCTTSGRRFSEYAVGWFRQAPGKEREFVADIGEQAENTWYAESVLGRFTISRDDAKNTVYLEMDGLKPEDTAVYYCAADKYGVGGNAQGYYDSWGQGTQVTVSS', 'Relative IC50 to Polypeptide_29', 'fold', 1),
  ('Polypeptide_29 (VHH, VHH_1.6 with C-terminal His tag extension E1; also called [VHH_1.6]-E1) VHH: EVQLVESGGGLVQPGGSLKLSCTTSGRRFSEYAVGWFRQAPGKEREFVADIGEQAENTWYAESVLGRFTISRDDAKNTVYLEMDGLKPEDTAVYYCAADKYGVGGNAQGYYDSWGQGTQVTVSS', 'Relative IC50 to Polypeptide_29', 'fold', 1);

Next:
Inquiry: Recorded Relative IC50 to Polypeptide_29 for Compound 14 (VHH, Chem. 24 (C16 fatty acid substituent) on Cys in position 4 of the extension (SEQ ID NO: 161)) VHH: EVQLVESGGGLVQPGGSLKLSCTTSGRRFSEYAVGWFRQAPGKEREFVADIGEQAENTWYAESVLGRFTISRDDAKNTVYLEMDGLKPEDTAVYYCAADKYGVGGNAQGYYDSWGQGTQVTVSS , please?
Reply text: 1.1
